System: OVCAR-8 ovarian
Assay: NCI tumour cell line growth inhibition, 48 h
Below, each entry is listed alongside its reported TGI.

# MOLECULE, TGI
rows = [
    ("CCn1c(-c2cc3ccccc3cc2OC(C)=O)n[nH]c1=S", "> 100 µM"),
]

# evaluate next
Data request: Provide the reported TGI (system: OVCAR-8 ovarian) for "CCOc1ccc(Nc2nc(N)nc(N)c2N=O)cc1"
Data returned: > 100 µM

====

Test system: BT-549 breast
Experiment: NCI tumour cell line growth inhibition, 48 h
The entries below are paired with their reported TGI.

Use these answered entries as a reference point.
# MOLECULE, TGI
rows = [
    ("C=C(c1ccc(C(=O)NCCCn2ccnc2)cc1)c1cc2c(cc1C)C(C)(C)CCC2(C)C", "14.9 µM"),
    ("COc1ccc(C2=NOC3=c4ccccc4=CSC3=C2c2ccccc2)cc1", "77 µM"),
    ("O=c1[nH]c2ccccc2c(=O)n1/N=C\\c1ccccc1O", "> 100 µM"),
]

Data request: Please respond with reported TGI (system BT-549 breast) for "Fc1nc(Sc2ncnc3nc[nH]c23)nc(-c2c3ccccc3c3sc4ccccc4n23)n1" .
Data returned: > 100 µM

Data request: State recorded TGI with BT-549 breast, entry "CNc1ccc(CSc2ccc(C)cc2)cc1" , no comment.
Data returned: 23 µM

Data request: Specify the recorded TGI for "CN(C)c1ccc(/C=C2\N=C(c3ccccc3)N(c3nc4ccc(Sc5ccccc5)cc4[nH]3)C2=O)cc1" , system: BT-549 breast.
Data returned: > 100 µM

Data request: Report the value of TGI obtained on BT-549 breast for "CCOC(=O)NCC(=O)NCC(=O)NCC(N)=O" .
Data returned: > 100 µM

Data request: Fetch value of TGI on BT-549 breast for CC1=NN(c2cc(Cl)c(S(=O)(=O)O)cc2Cl)C2(C1)C(Cl)C(=O)N2c1nc2ccccc2s1 (stereo unspecified) .
Data returned: > 100 µM

Data request: Look up BT-549 breast data: TGI of CN(Cc1cnc2nc(N)nc(N)c2n1)c1c(Cl)cc(C(=O)NC(CCC(=O)O)C(=O)O)cc1Br (stereo unspecified) , then report it.
Data returned: > 100 µM

Data request: System BT-549 breast. Read-out TGI. Item "COc1ccccc1CNCCCN1C(=O)c2ccc3c4c(ccc(c24)C1=O)C(=O)N(CCCNCCCCN)C3=O" . Report value.
Data returned: 2.59 µM

Data request: State TGI on BT-549 breast. Entry: "C=C(CCC(=O)N(CCc1c[nH]c2ccccc12)C(=O)c1ccccc1CSCC)C(=O)OC"
Data returned: > 100 µM

Data request: Give reported TGI for "Nc1ccc2c3c1cccc3c(=O)n1c3ccc(Cc4ccc5c(c4)nc4c6ccc(N)c7cccc(c(=O)n54)c76)cc3nc21" (BT-549 breast)
Data returned: > 100 µM

Data request: Find TGI for CC1(c2ccc(Cl)cc2)c2ccccc2C(=O)N1CCCN1C(=O)c2ccccc2C1=O (stereo unspecified) on BT-549 breast and write it down.
Data returned: > 100 µM

Data request: Given "Cc1cc(C)n(C(=CC(=O)C(Cl)Cl)n2nc(C)cc2C)n1" , report its TGI on BT-549 breast.
Data returned: 16.1 µM

Data request: Please respond with reported TGI (system BT-549 breast) for "Cc1c(-c2ccccc2)oc(=O)c2ccccc12" .
Data returned: 39.2 µM

Data request: Check BT-549 breast data and give TGI for "CSC1=C(C)C(/C=N/Nc2ccc([N+](=O)[O-])cc2)=C(C)N(c2ccccc2)S1(=O)=O" .
Data returned: > 100 µM

Reference source for all entries: PubChem BioAssay (NCI)
